Cited source: patent US20260365647A1

Target: AKT1-E17K (Homo sapiens, UniProt P31749, E17K)
Sequence (P31749 whole entry E17K): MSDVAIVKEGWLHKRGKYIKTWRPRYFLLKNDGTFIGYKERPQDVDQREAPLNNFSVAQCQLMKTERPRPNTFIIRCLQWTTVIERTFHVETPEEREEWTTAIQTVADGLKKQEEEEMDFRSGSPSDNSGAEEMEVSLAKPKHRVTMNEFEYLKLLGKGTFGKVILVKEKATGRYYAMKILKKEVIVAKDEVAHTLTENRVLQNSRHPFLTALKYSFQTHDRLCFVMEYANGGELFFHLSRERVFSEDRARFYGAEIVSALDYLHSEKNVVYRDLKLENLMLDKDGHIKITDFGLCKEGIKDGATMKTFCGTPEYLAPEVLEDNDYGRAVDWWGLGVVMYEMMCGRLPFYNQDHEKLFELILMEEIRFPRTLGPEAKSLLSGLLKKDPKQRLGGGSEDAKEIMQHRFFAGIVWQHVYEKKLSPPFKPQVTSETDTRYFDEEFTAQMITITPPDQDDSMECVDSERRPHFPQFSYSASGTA
Test: NanoBRET Target Engagement (TE) Assay
Protocol: The NanoBRET™ Target Engagement (TE) Intracellular Kinase Assays are based on the NanoBRET™ System (Promega Corporation), an energy transfer technique designed to measure molecular proximity in living cells. […] All cells were evaluated for viability prior to transfection and optimization of the transfection was done prior to experimentation. […] Milli-BRET units (mBU) are calculated by multiplying the raw BRET values by 1000. […]
pIC50: −log10 of the molar value.
Attribute Measured: pIC50

Some compounds with recorded pIC50:
Asked: Fill: pIC50 (AKT1-E17K (Homo sapiens, UniProt P31749, E17K)) for this compound `CN(Cc1ccc(-n2c(-c3cccnc3N)nc3ccc(-c4ccccc4)nc32)cc1)c1ccc(C=O)c(O)c1`
Given back: 6.22 to 7.22

Asked: Fill: pIC50 (AKT1-E17K (Homo sapiens, UniProt P31749, E17K)) for this compound Nc1ncccc1-c1nc2ccc(-c3ccccc3)nc2n1-c1ccc(CN2CCC3(CCN(c4ccc(C=O)c(O)c4)C3)C2)cc1 (stereo not shown)
Given back: 6.22 to 7.22

Asked: Fill: pIC50 (AKT1-E17K (Homo sapiens, UniProt P31749, E17K)) for this compound `Nc1ncccc1-c1nc2ccc(-c3ccc(F)cc3)nc2n1-c1ccc(CN2CCN(C(=O)c3ccc(C=O)c(O)c3)CC2)cc1`
Given back: 6.22 to 7.22

Asked: Fill: pIC50 (AKT1-E17K (Homo sapiens, UniProt P31749, E17K)) for this compound `Nc1ncccc1-c1nc2ccc(-c3ccccc3)nc2n1-c1ccc(CN2C[C@H]3CN(C(=O)c4ccc(O)c(C=O)c4)C[C@@H]3C2)cc1`
Given back: 7.22 to 7.82

Others:
Asked: Fill: pIC50 (AKT1-E17K (Homo sapiens, UniProt P31749, E17K)) for this compound `Nc1ncccc1-c1nc2ccc(-c3ccccc3)nc2n1-c1ccc(CN2C3CCC2CN(C(=O)c2ccc(O)c(C=O)c2)C3)cc1`
Given back: < 6.22

Asked: Fill: pIC50 (AKT1-E17K (Homo sapiens, UniProt P31749, E17K)) for this compound `Nc1ncccc1-c1nc2ccc(-c3ccccc3)nc2n1-c1ccc(CN2CCC3(CC2)CCN(C(=O)c2ccc(C=O)c(O)c2)C3)cc1`
Given back: 6.22 to 7.22

Asked: Fill: pIC50 (AKT1-E17K (Homo sapiens, UniProt P31749, E17K)) for this compound `Nc1ncccc1-c1nc2ccc(-c3ccccc3)nc2n1-c1ccc(CN2CC[C@@H](NC(=O)c3ccc(O)c(C=O)c3)C2)cc1`
Given back: > 7.82

Asked: Fill: pIC50 (AKT1-E17K (Homo sapiens, UniProt P31749, E17K)) for this compound Nc1ncccc1-c1nc2ccc(-c3ccccc3)nc2n1-c1ccc(CN2CCCC(NC(=O)c3ccc(O)c(C=O)c3)CC2)cc1 (stereo not shown)
Given back: 7.22 to 7.82

Asked: Fill: pIC50 (AKT1-E17K (Homo sapiens, UniProt P31749, E17K)) for this compound `Nc1ncccc1-c1nc2ccc(-c3ccccc3)nc2n1-c1ccc(COc2ccc(O)c(C=O)c2)cc1`
Given back: < 6.22

Asked: Fill: pIC50 (AKT1-E17K (Homo sapiens, UniProt P31749, E17K)) for this compound `Nc1ncccc1-c1nc2ccc(-c3ccccc3)nc2n1-c1ccc(CN2CCN(c3ccc(C=O)c(O)c3)CC2)cc1`
Given back: 7.22 to 7.82

Asked: Fill: pIC50 (AKT1-E17K (Homo sapiens, UniProt P31749, E17K)) for this compound `Nc1ncccc1-c1nc2ccc(-c3ccccc3)nc2n1-c1ccc(CN2C[C@H]3CN(C(=O)c4ccc(C=O)c(O)c4)C[C@@H]3C2)cc1`
Given back: 6.22 to 7.22

Asked: Fill: pIC50 (AKT1-E17K (Homo sapiens, UniProt P31749, E17K)) for this compound `Nc1ncccc1-c1nc2ccc(-c3ccccc3)nc2n1-c1ccc(CN2CC3(CC(NC(=O)c4ccc(C=O)c(O)c4)C3)C2)cc1`
Given back: 6.22 to 7.22

Asked: Fill: pIC50 (AKT1-E17K (Homo sapiens, UniProt P31749, E17K)) for this compound `Nc1ncccc1-c1nc2ccc(-c3ccccc3)nc2n1-c1ccc(CN2CC3(CCN(c4ccc(C=O)c(O)c4)CC3)C2)cc1`
Given back: 6.22 to 7.22
